Task for the reader: assign each of the following compounds its reported activity coefficient.
ASSAY METHOD TEXT: activity coefficient (dimensionless); of the first substance listed, at infinite dilution; xn = mol fraction of the nth substance listed
CONDITION SUMMARY: 319.98 K; Liquid; Gas Stripping Method; x1 = 0

Answered examples (3):
CCCl [chloroethane] + Cc1ccccc1O: 1.76
COC [dimethyl ether] + Cc1ccc(O)cc1: 0.19
COC [dimethyl ether] + Cc1ccccc1O: 0.14

Okay, now this compound:
According to the records, this compound CCCl [chloroethane] + Cc1ccc(O)cc1 displays activity coefficient of 2.06

----------
ASSAY METHOD TEXT: activity coefficient (dimensionless); of the first substance listed, at infinite dilution; xn = mol fraction of the nth substance listed
CONDITION SUMMARY: 299.98 K; Liquid; Gas Stripping Method; x1 = 0
Binary classification by activity coefficient, with 4 as an inclusive lower bound for yes (1); all other cases are no (0).

Example results:
C/C=C/C [(E)-2-butene] + Cc1cccc(O)c1: yes (1)
C=CC [propene] + Cc1cccc(O)c1: yes (1)
CCCl [chloroethane] + Cc1cccc(O)c1: no (0)
CCC [propane] + Cc1cccc(O)c1: yes (1)
C/C=C\C [(Z)-2-butene] + Cc1cccc(O)c1: yes (1)
CCCC [butane] + Cc1cccc(O)c1: yes (1)
CC(C)C [2-methylpropane] + Cc1cccc(O)c1: yes (1)
CC(F)F [1,1-difluoroethane] + Cc1cccc(O)c1: yes (1)
C=CCC [1-butene] + Cc1cccc(O)c1: yes (1)
C=C(C)C [2-methylpropene] + Cc1cccc(O)c1: yes (1)

Lookup: Decide: activity coefficient of C=CC=C [1,3-butadiene] + Cc1cccc(O)c1 >= 4?
Found: no (0)

Lookup: Does the compound COC [dimethyl ether] + Cc1cccc(O)c1 have recorded activity coefficient that is 4 or more?
Found: no (0)

----------
ASSAY METHOD TEXT: activity coefficient (dimensionless); of the first substance listed, at infinite dilution; xn = mol fraction of the nth substance listed
CONDITION SUMMARY: 309.98 K; Liquid; Gas Stripping Method; x1 = 0
ENDPOINT LABEL: activity coefficient
Give bare numbers.

COC [dimethyl ether] + Cc1cccc(O)c1: 0.15
CCCl [chloroethane] + Cc1ccc(O)cc1: 2.09
COC [dimethyl ether] + Cc1ccc(O)cc1: 0.16
CCCl [chloroethane] + Cc1cccc(O)c1: 2.05
CCCl [chloroethane] + Cc1ccccc1O: 1.77

// moving on: another record for activity coefficient
Noted for COC [dimethyl ether] + Cc1ccccc1O : its activity coefficient reads 0.12

----------
ASSAY METHOD TEXT: activity coefficient (dimensionless); of the first substance listed, at infinite dilution; xn = mol fraction of the nth substance listed
CONDITION SUMMARY: 299.99 K; Liquid; Gas Stripping Method; x1 = 0
ENDPOINT LABEL: activity coefficient

Example molecules with recorded activity coefficient:
C/C=C\C [(Z)-2-butene] + Cc1ccccc1O: 3.79
CCCl [chloroethane] + Cc1ccccc1O: 1.83

Would you mind listing activity coefficient for each of the following molecules?
1. CCCC [butane] + Cc1ccccc1O
2. C=CC [propene] + Cc1ccccc1O
3. C/C=C/C [(E)-2-butene] + Cc1ccccc1O

Found:
1: 6.92; 2: 3.81; 3: 4.25

For this molecule ( C=CC=C [1,3-butadiene] + Cc1ccccc1O ), measured activity coefficient is 2.87

----------
Provide the reported activity coefficient of each item.
ASSAY METHOD TEXT: activity coefficient (dimensionless); of the first substance listed, at infinite dilution; xn = mol fraction of the nth substance listed
CONDITION SUMMARY: 340.02 K; Liquid; Gas Stripping Method; x1 = 0

Recorded results for 4 molecules are shown here.
CCC [propane] + Cc1ccc(O)cc1: 5.74
C=CCC [1-butene] + Cc1ccc(O)cc1: 4.26
C/C=C\C [(Z)-2-butene] + Cc1ccc(O)cc1: 3.8
CCCC [butane] + Cc1ccc(O)cc1: 6.09

Kindly give each listed record's activity coefficient.
1. C/C=C/C [(E)-2-butene] + Cc1ccc(O)cc1
2. C=C(C)C [2-methylpropene] + Cc1ccc(O)cc1
3. CC(C)C [2-methylpropane] + Cc1ccc(O)cc1
4. C=CC [propene] + Cc1ccc(O)cc1
5. CC(F)F [1,1-difluoroethane] + Cc1ccc(O)cc1

Found:
4.14
4.07
7.03
3.84
3.88

For C=CC=C [1,3-butadiene] + Cc1ccc(O)cc1 the molecule record lists activity coefficient as 2.99

----------
Field: activity coefficient. Provide a value for each of the molecules that follow.
ASSAY METHOD TEXT: activity coefficient (dimensionless); of the first substance listed, at infinite dilution; xn = mol fraction of the nth substance listed
CONDITION SUMMARY: 329.99 K; Liquid; Gas Stripping Method; x1 = 0

Use the examples below as a reference point.
C=CC [propene] + Cc1cccc(O)c1: 3.88
C=CC [propene] + Cc1ccccc1O: 3.48
C/C=C/C [(E)-2-butene] + Cc1ccccc1O: 3.82
CCCC [butane] + Cc1ccc(O)cc1: 6.32
CC(C)C [2-methylpropane] + Cc1cccc(O)c1: 7.21

Hi there! I need activity coefficient for each item below, if you can.
1. C=CC [propene] + Cc1ccc(O)cc1
2. C=CC=C [1,3-butadiene] + Cc1ccc(O)cc1
3. COC [dimethyl ether] + Cc1ccc(O)cc1
4. C/C=C/C [(E)-2-butene] + Cc1ccc(O)cc1
5. C=C(C)C [2-methylpropene] + Cc1cccc(O)c1

Found:
1: 3.92; 2: 3.07; 3: 0.21; 4: 4.25; 5: 4.16

Please supply activity coefficient for each of the following items, keeping them in order.
1. C=CCC [1-butene] + Cc1ccccc1O
2. CCC [propane] + Cc1ccc(O)cc1
3. C=CCC [1-butene] + Cc1cccc(O)c1
4. C/C=C\C [(Z)-2-butene] + Cc1ccccc1O

Found:
1. 3.87
2. 5.93
3. 4.36
4. 3.44

----------
ASSAY METHOD TEXT: activity coefficient (dimensionless); of the first substance listed, at infinite dilution; xn = mol fraction of the nth substance listed
CONDITION SUMMARY: 319.99 K; Liquid; Gas Stripping Method; x1 = 0
ENDPOINT LABEL: activity coefficient

Field: example entries. Status: answers known.
C/C=C\C [(Z)-2-butene] + Cc1cccc(O)c1: 3.99
C=CC [propene] + Cc1cccc(O)c1: 3.97
C/C=C\C [(Z)-2-butene] + Cc1ccc(O)cc1: 4.03
C=CCC [1-butene] + Cc1ccccc1O: 4.03
C/C=C/C [(E)-2-butene] + Cc1ccccc1O: 3.98

Here is the next item to consider.
The compound listed as C=CC [propene] + Cc1ccc(O)cc1 has a reported activity coefficient of 4.02

----------
ASSAY METHOD TEXT: activity coefficient (dimensionless); of the first substance listed, at infinite dilution; xn = mol fraction of the nth substance listed
CONDITION SUMMARY: 309.99 K; Liquid; Gas Stripping Method; x1 = 0
Exercise: state measured activity coefficient for each of the molecules provided.
Answers are plain numbers.

C/C=C\C [(Z)-2-butene] + Cc1ccc(O)cc1: 4.12

Answer for every listed entry: what is its activity coefficient? The entries follow.
1. C=CC=C [1,3-butadiene] + Cc1ccccc1O
2. C=C(C)C [2-methylpropene] + Cc1cccc(O)c1
3. CCC [propane] + Cc1ccccc1O
4. C=CCC [1-butene] + Cc1ccccc1O
5. C=CC [propene] + Cc1ccc(O)cc1
6. C=CCC [1-butene] + Cc1cccc(O)c1

Found:
1: 2.81; 2: 4.42; 3: 6.04; 4: 4.15; 5: 4.07; 6: 4.62

// for each molecule below, give its activity coefficient
1. CCC [propane] + Cc1ccc(O)cc1
2. C=C(C)C [2-methylpropene] + Cc1ccccc1O

Found:
[6.29, 3.98]
